target.or.test.system: KRAS (G12D)::SOS1 (Homo sapiens (Human), UniProt P01116, G12D)
Sequence (P01116 other isoform, or with tags, fused parts or gaps G12D): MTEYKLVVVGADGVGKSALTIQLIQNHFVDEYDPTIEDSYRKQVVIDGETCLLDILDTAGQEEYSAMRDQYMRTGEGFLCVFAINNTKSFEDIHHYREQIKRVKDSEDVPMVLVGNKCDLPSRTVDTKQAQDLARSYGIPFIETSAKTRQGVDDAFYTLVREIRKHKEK
procedure.summary: KRAS::SOS1 AlphaScreen binding assay, KRAS G12D
pIC50: −log10 of the molar value.
parameter.measured: pIC50

| entry.smiles | quantitative.readout |
| --- | --- |
| C[C@H](Oc1cc(-c2cccc(CO)c2)nc(-c2noc3c2CCC[C@@]32CCCc3sc(N)c(C#N)c32)n1)[C@@H]1CCCN1C | 7.89 |
| C[C@H](Oc1cc(-c2cn[nH]c2)nc(-c2noc3c2CCC[C@@]32CCCc3sc(N)c(C#N)c32)n1)[C@@H]1CCCN1C | 8.52 |
| Cc1cc(-c2onc3c2CCC[C@@]32CCCc3sc(N)c(C#N)c32)nc(N2CCCNC[C@@H]2C)n1 | 7.68 |
| C[C@H](Oc1cc(N2CC[C@H](N3CCCC3)C2)nc(-c2noc3c2CCC[C@@]32CCCc3sc(N)c(C#N)c32)n1)[C@@H]1CCCN1C | 9.00 |
| C[C@H](Oc1cc(-n2ccnc2)nc(-c2noc3c2CCC[C@@]32CCCc3sc(N)c(C#N)c32)n1)[C@@H]1C[C@@H](F)CN1C | 8.05 |
| CO[C@@H]1C[C@@H]([C@H](C)Oc2cc(N3CCN(C)C4(CC4)C3)nc(-c3noc4c3CCC[C@@]43CCCc4sc(N)c(C#N)c43)n2)N(C)C1 | 8.52 |
| C[C@H](Oc1cc(-n2ccnn2)nc(-c2onc3c2CCC[C@@]32CCCc3sc(N)c(C#N)c32)n1)[C@@H]1CCCN1C | 8.70 |
| C[C@H](Oc1cc(-n2cc3c(n2)CN(C)C3)nc(-c2noc3c2CCC[C@@]32CCCc3sc(N)c(C#N)c32)n1)[C@@H]1CCCN1C | 9.00 |
| C[C@H](Oc1cc(N2CCNC3(COC3)C2)nc(-c2noc3c2CCC[C@@]32CCCc3sc(N)c(C#N)c32)n1)[C@@H]1C[C@@H](F)CN1C | 9.00 |
| C[C@H](Oc1cc(-c2ccn(C3CC3)n2)nc(-c2noc3c2CCC[C@@]32CCCc3sc(N)c(C#N)c32)n1)[C@@H]1CCCN1C | 8.40 |
| C[C@H](Oc1nc(-c2onc3c2CCC[C@@]32CCCc3sc(N)c(C#N)c32)cc(N2CCNC3(CC3)C2)n1)[C@@H]1CCCN1C | 8.70 |
| COCCNC(=O)c1ccn(-c2cc(O[C@@H](C)[C@@H]3[C@@H](OC)CCN3C)nc(-c3noc4c3CCC[C@@]43CCCc4sc(N)c(C#N)c43)n2)n1 | 9.00 |
| CC(=O)N1CCN(c2cc(O[C@@H](C)[C@@H]3CCCN3C)nc(-c3noc4c3CCC[C@@]43CCCc4sc(N)c(C#N)c43)n2)CC12CC2 | 8.70 |

---

Tested on: KRAS G12C-dependent Ba/F3 cells
procedure.summary: Ba/F3 proliferation assay, KRAS G12C
Format: cell-based
condition.parameters: Mus musculus, BaF3, 72 h, AlamarBlue
pIC50: −log10 of the molar value.
parameter.measured: pIC50

| entry.smiles | parameter.measured | quantitative.readout |
| --- | --- | --- |
| CO[C@H]1CCN(C)[C@@H]1[C@H](C)Oc1cc(-n2ccc(C(=O)N[C@@H](C)c3ccccn3)n2)nc(-c2noc3c2CCC[C@@]32CCCc3sc(N)c(C#N)c32)n1 | pIC50 | 9.00 |
| C[C@H](Oc1cc(N2CCN(C)C3(COC3)C2)nc(-c2noc3c2CCC[C@@]32CCCc3sc(N)c(C#N)c32)n1)[C@@H]1CCCN1C | pIC50 | 6.92 |
| C[C@H](Oc1cc(-c2ccn(Cc3ncco3)n2)nc(-c2noc3c2CCC[C@@]32CCCc3sc(N)c(C#N)c32)n1)[C@@H]1CCCN1C | pIC50 | 8.00 |
| C[C@H](Oc1cc(-c2ccc(N)nc2)nc(-c2onc3c2CCC[C@@]32CCCc3sc(N)c(C#N)c32)n1)[C@@H]1CCCN1C | pIC50 | 7.04 |
| C[C@H](O)Cn1ncc(-c2cc(O[C@@H](C)[C@@H]3CCCN3C)nc(-c3noc4c3CCC[C@@]43CCCc4sc(N)c(C#N)c43)n2)n1 | pIC50 | 7.39 |
| CO[C@H]1CCN(C)[C@@H]1[C@H](C)Oc1cc(-n2ccc(C(=O)N[C@H]3CCOC3)n2)nc(-c2noc3c2CCC[C@@]32CCCc3sc(N)c(C#N)c32)n1 | pIC50 | 9.00 |
